- system.name: δ opioid receptor of the mouse isolated vas deferens (mouse), P32300
- Sequence (P32300 whole entry, stated change not applied): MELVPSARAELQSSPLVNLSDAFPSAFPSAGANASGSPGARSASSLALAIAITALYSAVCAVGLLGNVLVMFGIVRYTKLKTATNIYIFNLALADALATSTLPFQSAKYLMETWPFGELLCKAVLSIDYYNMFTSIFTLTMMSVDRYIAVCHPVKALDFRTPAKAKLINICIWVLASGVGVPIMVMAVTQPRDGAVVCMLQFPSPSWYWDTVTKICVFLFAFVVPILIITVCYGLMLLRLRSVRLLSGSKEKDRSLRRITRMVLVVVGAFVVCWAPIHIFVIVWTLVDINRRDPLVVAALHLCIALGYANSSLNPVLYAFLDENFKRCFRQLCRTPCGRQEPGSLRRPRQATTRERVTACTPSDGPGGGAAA
- test.protocol: cell-based or functional assay
Bridge positions count the residues as written; N and C are the ends. Square brackets hold non-standard residues; d marks the D form. Primed or numbered codes have the meaning given here. Ends that are not written are not given here. * marks the point of attachment. NMeBn(CF3)2 = C-terminal N-methyl bis(trifluoromethyl)benzyl amide; Glc = O-glucosyl on Ser side chain (Ser(OGlu)/Ser(OGlc)); NH(3,5-(CF3)2-benzyl) = FC(F)(F)c1cc(CN*)cc(C(F)(F)F)c1; OBzl(3,5-(CF3)2) = FC(F)(F)c1cc(CO*)cc(C(F)(F)F)c1; Glc″ = glucosyl on the serine side-chain oxygen; NH‑Bn(CF3)2 = C-terminal Bn(CF3)2 amide; OBn(OMe)2 = C-terminal OBn(OMe)2 ester; Dmt = Cc1cc(O)cc(C)c1C[C@H](N)C(=O)O; NMe(benzyl) = CN(Cc1ccccc1)*; Nle = CCCC[C@H](N)C(=O)O; NHBn = c1ccc(CN*)cc1; OBn = c1ccc(CO*)cc1
Rule: MVD opioid(delta) agonist IC50 below 20 nM gives condition met, anything at or above gives condition not met.

Find out if reported MVD opioid(delta) agonist IC50 for Y[dC]GF[Nle]P[dC]W-{NH(3,5-(CF3)2-benzyl)} (disulfide 2-7) [Tyr[DCysGlyPheNleProDCys]TrpNHBn(CF3)2 (TY038)] is less than 20 nM
condition met

Find out if reported MVD opioid(delta) agonist IC50 for [Dmt][dA]GFMPLW-NHBn [DmtDAlaGlyPheMetProLeuTrpNHBn (TY034)] is less than 20 nM
condition met

Find out if reported MVD opioid(delta) agonist IC50 for Y[dA]GFMPLW-{OBn(OMe)2} [TyrDAlaGlyPheMetProLeuTrpOBn(OMe)2 (TY030)] is less than 20 nM
condition met

Find out if reported MVD opioid(delta) agonist IC50 for Y[dA]GF[Nle]PLS(Glc)W-{NH‑Bn(CF3)2} [TyrDAlaGlyPheNleProLeuSer(OGlu)TrpNHBn(CF3)2 (TY055)] is less than 20 nM
condition met

Find out if reported MVD opioid(delta) agonist IC50 for Y[dA]GFFPLW-{OBzl(3,5-(CF3)2)} [TyrDAlaGlyPhePheProLeuTrpOBn(CF3)2 (TY003)] is less than 20 nM
condition not met

Find out if reported MVD opioid(delta) agonist IC50 for Y[dC]GFCPLW-{NH(3,5-(CF3)2-benzyl)} (disulfide 2-5) [Tyr[DCysGlyPheCys]ProLeuTrpNHBn(CF3)2 (TY039)] is less than 20 nM
condition not met

Find out if reported MVD opioid(delta) agonist IC50 for Y[dA]GFSPLW-{NH(3,5-(CF3)2-benzyl)} (not fully specified (residue 5); printed as TyrDAlaGlyPheSer(OGlu)ProLeuTrpNHBn(CF3)2) [TyrDAlaGlyPheSer(OGlu)ProLeuTrpNHBn(CF3)2 (TY042)] is less than 20 nM
condition not met

Find out if reported MVD opioid(delta) agonist IC50 for Y[dA]GFMPLW-{NH(3,5-(CF3)2-benzyl)} [TyrDAlaGlyPheMetProLeuTrpNHBn(CF3)2 (TY027)] is less than 20 nM
condition met

Find out if reported MVD opioid(delta) agonist IC50 for Y[dA]GFMPLW-OBn [TyrDAlaGlyPheMetProLeuTrpOBn (TY029)] is less than 20 nM
condition met

Find out if reported MVD opioid(delta) agonist IC50 for Y[dA]GFMPLW-{NMe(benzyl)} [TyrDAlaGlyPheMetProLeuTrpNMeBn (TY026)] is less than 20 nM
condition met

Find out if reported MVD opioid(delta) agonist IC50 for Y[dC]GF[dC]PLW-{NH(3,5-(CF3)2-benzyl)} (disulfide 2-5) [Tyr[DCysGlyPheDCys]ProLeuTrpNHBn(CF3)2 (TY037)] is less than 20 nM
condition met

Find out if reported MVD opioid(delta) agonist IC50 for [Dmt][dA]GFMPLW-{NH(3,5-(CF3)2-benzyl)} [DmtDAlaGlyPheMetProLeuTrpNHBn(CF3)2 (TY032)] is less than 20 nM
condition met

Find out if reported MVD opioid(delta) agonist IC50 for Y[dA]GF[Nle]PS(Glc)W-{NH‑Bn(CF3)2} [TyrDAlaGlyPheNleProSer(OGlu)TrpNHBn(CF3)2 (TY041)] is less than 20 nM
condition met

Find out if reported MVD opioid(delta) agonist IC50 for Y[dA]GFLPLW-{OBzl(3,5-(CF3)2)} [TyrDAlaGlyPheLeuProLeuTrpOBn(CF3)2 (TY004)] is less than 20 nM
condition not met

Find out if reported MVD opioid(delta) agonist IC50 for Y[dA]GFGPLW-{OBzl(3,5-(CF3)2)} [TyrDAlaGlyPheGlyProLeuTrpOBn(CF3)2 (TY006)] is less than 20 nM
condition not met

Find out if reported MVD opioid(delta) agonist IC50 for [Dmt][dA]GFMPLW-{OBzl(3,5-(CF3)2)} [DmtDAlaGlyPheMetProLeuTrpOBn(CF3)2 (TY033)] is less than 20 nM
condition met

Find out if reported MVD opioid(delta) agonist IC50 for YAGFXPLW (here or on the partner: D-Ala at 2; Nle at 5 (X); C-terminal NH-Bn(CF3)2 amide) [TyrDAlaGlyPheNleProLeuTrpNHBn(CF3)2 (TY045)] is less than 20 nM
condition met

Find out if reported MVD opioid(delta) agonist IC50 for Y[dA]GFMPLW-{OBzl(3,5-(CF3)2)} [TyrDAlaGlyPheMetProLeuTrpOBn(CF3)2 (TY005)] is less than 20 nM
condition not met

Find out if reported MVD opioid(delta) agonist IC50 for Y[dC]GFMPLW-{OBzl(3,5-(CF3)2)} [TyrDCysGlyPheMetProLeuTrpOBn(CF3)2 (TY031)] is less than 20 nM
condition not met

Find out if reported MVD opioid(delta) agonist IC50 for Y[dA]GFMPLW-{NMeBn(CF3)2} [TyrDAlaGlyPheMetProLeuTrpNMeBn(CF3)2 (TY028)] is less than 20 nM
condition met

Find out if reported MVD opioid(delta) agonist IC50 for YAGFXPLW (here or on the partner: D-Ala at 2; Nle (norleucine) at 5 (X); C-terminal O-3,5-Bn(CF3)2 ester) [TyrDAlaGlyPheNleProLeuTrpOBn(CF3)2 (TY018)] is less than 20 nM
condition met

Find out if reported MVD opioid(delta) agonist IC50 for Y[dA]GF[Nle]S(Glc″)LW-{NH‑Bn(CF3)2} [TyrDAlaGlyPheNleSer(OGlu)LeuTrpNHBn(CF3)2 (TY044)] is less than 20 nM
condition met

Find out if reported MVD opioid(delta) agonist IC50 for [Dmt][dA]GF[Nle]PS(Glc)W-{NH‑Bn(CF3)2} [DmtDAlaGlyPheNleProSer(OGlu)TrpNHBn(CF3)2 (TY056)] is less than 20 nM
condition met

Find out if reported MVD opioid(delta) agonist IC50 for Y[dC]GF[Nle]PCW-{NH(3,5-(CF3)2-benzyl)} (disulfide 2-7) [Tyr[DCysGlyPheNleProCys]TrpNHBn(CF3)2 (TY035)] is less than 20 nM
condition not met

Find out if reported MVD opioid(delta) agonist IC50 for Y[dA]GFMPLW-OH [TyrDAlaGlyPheMetProLeuTrpOH (TY043)] is less than 20 nM
condition met

Find out if reported MVD opioid(delta) agonist IC50 for YAGFMPLW (here or on the partner: D-Ala at 2; Met(O) (oxidized methionine) at 5; C-terminal O-3,5-Bn(CF3)2 ester) [TyrDAlaGlyPheMet(O)ProLeuTrpOBn(CF3)2 (TY023)] is less than 20 nM
condition not met

Find out if reported MVD opioid(delta) agonist IC50 for Y[dA]GF[dF]PLW-{OBzl(3,5-(CF3)2)} [TyrDAlaGlyPheDPheProLeuTrpOBn(CF3)2 (TY007)] is less than 20 nM
condition not met

Taken from patent US8026218.
